Data provenance: ChEMBL document CHEMBL6177998

Assay: AUC in male ICR mouse at 10 mg/kg, po by LC-MS/MS analysis
Type: ADME, organism-based
Conditions: in vivo
measured.metric: AUC (ng·h/mL)
Give the number; ng·h/mL is assumed, so skip it.

Returns the measured AUC for the input compound. Input: COc1ccc(C(C)(C)c2cc(Cl)c(OCC3CCN(C(=O)CCCCCNc4ccc5c(c4)C(=O)N(C4CCC(=O)NC4=O)C5=O)CC3)c(C#N)c2)cc1 (stereo unspecified)
1040

====

Target: Protein cereblon/Androgen receptor (Homo sapiens, UniProt P10275+Q96SW2)
Assay: PROTAC activity at CRBN/AR in human VCaP cells assessed as induction of AR degradation at 5 uM incubated for 24 hrs by Western blot analysis relative to control
Format: cell-based
measured.metric: Activity (%)
Give the number; % is assumed, so skip it.

Returns the measured Activity for the input compound. Input: CC(C)(c1ccc(OCC2CCN(C(=O)CCCCCCCNc3ccc4c(c3)C(=O)N(C3CCC(=O)NC3=O)C4=O)CC2)cc1)c1ccc(OC[C@H](O)CCl)cc1 (stereo not given in full)
10.2

Returns the measured Activity for the input compound. Input: CC(C)(c1ccc(OCC2CCN(C(=O)CCCCCCOc3ccc4c(c3)C(=O)N(C3CCC(=O)NC3=O)C4=O)CC2)cc1)c1ccc(OC[C@H](O)CCl)cc1 (stereo not given in full)
8

Returns the measured Activity for the input compound. Input: CC(C)(c1ccc(OCC2CCN(C(=O)CCCCC#Cc3ccc4c(c3)C(=O)N(C3CCC(=O)NC3=O)C4=O)CC2)cc1)c1ccc(OC[C@H](O)CCl)cc1 (stereo not given in full)
18.6

====

Tested on: Protein cereblon/Androgen receptor (Homo sapiens), P10275+Q96SW2 [UNDEFINED MUTATION]
Sequence (P10275 whole entry, looked up, change not shown, canonical isoform): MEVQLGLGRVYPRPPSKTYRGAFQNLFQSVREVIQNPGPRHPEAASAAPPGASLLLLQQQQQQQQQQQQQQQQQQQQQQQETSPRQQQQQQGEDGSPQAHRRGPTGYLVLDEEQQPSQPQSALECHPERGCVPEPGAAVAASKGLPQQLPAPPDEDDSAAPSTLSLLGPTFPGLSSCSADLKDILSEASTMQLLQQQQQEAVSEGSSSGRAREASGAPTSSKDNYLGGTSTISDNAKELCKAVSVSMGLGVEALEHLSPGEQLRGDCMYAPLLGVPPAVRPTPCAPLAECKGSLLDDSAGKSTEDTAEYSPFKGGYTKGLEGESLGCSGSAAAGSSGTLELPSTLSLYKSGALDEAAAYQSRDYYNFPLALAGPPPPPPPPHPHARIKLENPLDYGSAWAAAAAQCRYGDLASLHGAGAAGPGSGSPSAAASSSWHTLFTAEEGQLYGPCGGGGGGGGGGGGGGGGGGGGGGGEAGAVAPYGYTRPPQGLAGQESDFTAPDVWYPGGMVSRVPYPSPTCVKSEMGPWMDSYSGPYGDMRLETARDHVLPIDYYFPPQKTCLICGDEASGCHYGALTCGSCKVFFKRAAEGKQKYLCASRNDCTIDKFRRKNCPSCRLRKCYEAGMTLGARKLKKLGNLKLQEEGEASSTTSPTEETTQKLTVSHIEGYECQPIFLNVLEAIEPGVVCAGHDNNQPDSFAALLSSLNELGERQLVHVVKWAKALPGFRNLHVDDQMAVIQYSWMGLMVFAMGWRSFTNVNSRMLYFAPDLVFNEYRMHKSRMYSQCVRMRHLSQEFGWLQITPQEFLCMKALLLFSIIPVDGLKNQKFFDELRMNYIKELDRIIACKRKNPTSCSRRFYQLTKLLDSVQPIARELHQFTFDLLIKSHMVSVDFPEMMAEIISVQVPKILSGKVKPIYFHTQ
Sequence (Q96SW2 whole entry, looked up, change not shown, canonical isoform): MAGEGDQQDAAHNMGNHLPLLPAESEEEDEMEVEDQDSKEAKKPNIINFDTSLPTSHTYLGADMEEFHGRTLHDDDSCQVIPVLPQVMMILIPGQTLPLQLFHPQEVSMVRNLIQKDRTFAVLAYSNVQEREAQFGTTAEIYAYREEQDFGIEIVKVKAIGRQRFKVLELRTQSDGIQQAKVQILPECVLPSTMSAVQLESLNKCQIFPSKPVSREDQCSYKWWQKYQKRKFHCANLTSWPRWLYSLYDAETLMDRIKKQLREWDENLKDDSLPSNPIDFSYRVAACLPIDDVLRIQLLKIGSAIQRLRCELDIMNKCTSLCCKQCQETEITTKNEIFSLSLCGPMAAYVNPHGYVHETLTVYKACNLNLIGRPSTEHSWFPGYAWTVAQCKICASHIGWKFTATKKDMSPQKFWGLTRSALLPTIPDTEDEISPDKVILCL
Test: PROTAC activity at CRBN/Androgen receptor splice variant 7 in human 22Rv1 cells assessed as induction of AR-V7 degradation at 5 uM incubated for 24 hrs by Western blot analysis relative to control
Format: cell-based
Strictly below 30% in Activity: Met. Otherwise: Not met.

# count of solved cases: 5
compound	label.value
CC(C)(c1ccc(OCC2CCN(C(=O)CCCCCNc3cccc4c3C(=O)N(C3CCC(=O)NC3=O)C4=O)CC2)cc1)c1ccc(OC[C@H](O)CCl)cc1 (some centres not stated)	Met
CC(C)(c1ccc(OCC2CCN(C(=O)CCCCCCNc3cccc4c3C(=O)N(C3CCC(=O)NC3=O)C4=O)CC2)cc1)c1ccc(OC[C@H](O)CCl)cc1 (some centres not stated)	Met
CC(C)(c1ccc(OCC2CCN(C(=O)CCCCCNc3ccc4c(c3)C(=O)N(C3CCC(=O)NC3=O)C4=O)CC2)cc1)c1ccc(OC[C@H](O)CCl)cc1 (some centres not stated)	Not met
CC(C)(c1ccc(OCC2CCN(C(=O)CCCCCCOc3ccc4c(c3)C(=O)N(C3CCC(=O)NC3=O)C4=O)CC2)cc1)c1ccc(OC[C@H](O)CCl)cc1 (some centres not stated)	Not met
CC(C)(c1ccc(OCC2CCN(C3CN(C(=O)CCNc4ccc5c(c4)C(=O)N(C4CCC(=O)NC4=O)C5=O)C3)CC2)cc1)c1ccc(OC[C@H](O)CCl)cc1 (some centres not stated)	Met

Lab log: compare recorded Activity with 30%; is it strictly lower for CC(C)(c1ccc(OCC2CCN(C(=O)CCCCNc3ccc4c(c3)C(=O)N(C3CCC(=O)NC3=O)C4=O)CC2)cc1)c1ccc(OC[C@H](O)CCl)cc1 (some centres not stated) ?
Met

Lab log: compare recorded Activity with 30%; is it strictly lower for CC(C)(c1ccc(OCC2CCN(C(=O)CCCC#Cc3ccc4c(c3)C(=O)N(C3CCC(=O)NC3=O)C4=O)CC2)cc1)c1ccc(OC[C@H](O)CCl)cc1 (some centres not stated) ?
Met

Lab log: compare recorded Activity with 30%; is it strictly lower for CC(C)(c1ccc(OCC2CCN(C(=O)CCCCCCCNc3cccc4c3C(=O)N(C3CCC(=O)NC3=O)C4=O)CC2)cc1)c1ccc(OC[C@H](O)CCl)cc1 (some centres not stated) ?
Not met

Lab log: compare recorded Activity with 30%; is it strictly lower for CC(C)(c1ccc(OCC2CCN(C(=O)CCCCC#Cc3ccc4c(c3)C(=O)N(C3CCC(=O)NC3=O)C4=O)CC2)cc1)c1ccc(OC[C@H](O)CCl)cc1 (some centres not stated) ?
Met

Lab log: compare recorded Activity with 30%; is it strictly lower for CC(C)(c1ccc(OCC2CCN(C3CN(C(=O)CCCNc4ccc5c(c4)C(=O)N(C4CCC(=O)NC4=O)C5=O)C3)CC2)cc1)c1ccc(OC[C@H](O)CCl)cc1 (some centres not stated) ?
Met

Lab log: compare recorded Activity with 30%; is it strictly lower for CC(C)(c1ccc(OCC2CCN(C3CN(C(=O)CCCCNc4ccc5c(c4)C(=O)N(C4CCC(=O)NC4=O)C5=O)C3)CC2)cc1)c1ccc(OC[C@H](O)CCl)cc1 (some centres not stated) ?
Met
